molecular target: Voltage-dependent calcium channel subunit alpha-2/delta-1 (Homo sapiens, UniProt P54289); assay: Binding affinity for huamn alpha2-delta1 subunit of voltage gated calcium channel over-expressed in A710 cell membranes using [3H]-gabapentin
Sequence (P54289 25-956 limits assumed): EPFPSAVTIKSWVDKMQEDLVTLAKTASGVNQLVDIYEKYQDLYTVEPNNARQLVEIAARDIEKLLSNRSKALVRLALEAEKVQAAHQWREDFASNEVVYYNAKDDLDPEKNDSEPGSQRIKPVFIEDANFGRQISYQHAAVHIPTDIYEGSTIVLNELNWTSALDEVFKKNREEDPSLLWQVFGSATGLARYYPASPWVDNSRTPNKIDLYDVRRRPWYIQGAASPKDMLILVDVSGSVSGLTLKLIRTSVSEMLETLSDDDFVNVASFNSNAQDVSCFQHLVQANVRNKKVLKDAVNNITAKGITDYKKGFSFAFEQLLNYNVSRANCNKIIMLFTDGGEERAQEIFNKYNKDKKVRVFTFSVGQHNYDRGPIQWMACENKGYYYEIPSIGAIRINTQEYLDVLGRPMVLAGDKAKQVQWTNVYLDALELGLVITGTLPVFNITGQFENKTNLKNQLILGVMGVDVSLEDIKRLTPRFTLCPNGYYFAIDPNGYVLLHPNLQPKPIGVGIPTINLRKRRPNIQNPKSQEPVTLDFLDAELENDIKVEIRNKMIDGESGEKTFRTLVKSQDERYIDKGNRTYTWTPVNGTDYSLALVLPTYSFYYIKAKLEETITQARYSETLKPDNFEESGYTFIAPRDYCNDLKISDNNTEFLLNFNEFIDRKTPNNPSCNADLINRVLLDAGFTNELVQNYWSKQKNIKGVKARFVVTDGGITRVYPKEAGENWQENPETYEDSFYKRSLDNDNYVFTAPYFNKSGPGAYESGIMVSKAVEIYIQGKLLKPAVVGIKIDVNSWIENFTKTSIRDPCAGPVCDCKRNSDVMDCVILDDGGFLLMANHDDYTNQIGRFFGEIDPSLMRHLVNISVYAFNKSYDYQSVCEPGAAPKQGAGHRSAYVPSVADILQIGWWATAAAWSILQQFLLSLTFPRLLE
Sequence (P54289 957-1103 limits assumed): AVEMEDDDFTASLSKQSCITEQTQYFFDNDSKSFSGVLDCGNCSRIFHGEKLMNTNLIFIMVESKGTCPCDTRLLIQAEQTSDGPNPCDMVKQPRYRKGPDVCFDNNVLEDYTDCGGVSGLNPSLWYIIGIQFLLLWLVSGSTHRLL
assay.readout: IC50 (nM)

Some entries whose results are on file:
> print(dat)
                                   molecule                                 tested.on  observed.value
1  CCOc1ccc(-n2c(C)c3c(C)nnc(-c4ccc(OC(F)(F)F)cc4)c3c2C)cc1  Voltage-dependent calcium channel subunit alpha-2/delta-1 (Homo sapiens, UniProt P54289)            1730
2     CCOc1ccc(-n2c(C)c3c(C)nnc(C)c3c2C)cc1  Voltage-dependent calcium channel subunit alpha-2/delta-1 (Homo sapiens, UniProt P54289)             180
3  CCOc1ccc(-n2c(C)c3c(C)nnc(CC(C)C)c3c2C)cc1  Voltage-dependent calcium channel subunit alpha-2/delta-1 (Homo sapiens, UniProt P54289)             171

(I) CCCCCc1nnc(C)c2c(C)n(-c3ccc(OCC)cc3)c(C)c12
(II) CCOc1ccc(-n2c(C)c3c(C)nnc(CCC4CCCC4)c3c2C)cc1
(III) CCOc1ccc(-n2c(C)c3c(C)nnc(-c4ccc(F)cc4)c3c2C)cc1
*Q* Rank entries according to their IC50, from the largest number down. Rank them, then answer with their labels in that order.
*A* III, I, II
(III: 528 nM, I: 360 nM, II: 148 nM)

(P) CCOc1ccc(-n2c(C)c3c(C)nnc(-c4ccccc4)c3c2C)cc1
(Q) CCOc1ccc(-n2c(C)c3c(C)nnc(-c4ccc(C)cc4)c3c2C)cc1
*Q* Response body: label of entry with the larger IC50; valid values P , Q . Pick one and reply with its label.
*A* P
(P: 382 nM, Q: 86 nM)

(1) CCOc1ccc(-n2c(C)c3c(C)nnc(Nc4ccccc4)c3c2C)cc1
(2) CCOc1ccc(-n2c(C)c3c(C)nnc(C4CCCC4)c3c2C)cc1
*Q* Return label of the item with the larger IC50. Candidates: 1 , 2 . Please indicate the selected item by its label.
*A* 2

Ref: ChEMBL document CHEMBL1137964
